Biological target: (NANP)6 (Plasmodium falciparum)
Assay: BLI, target on sensor
observable: pKd
Keep in mind that pKd stands for -log10 of concentration in molar terms.

Look over these answered cases.
{"columns": ["binder", "pKd"],
 "data": [
  ["AB-007044 (antibody, V domains shown) VH: QMQLVESGGGVVQPGRSLRLSCTASGFTFSTYAMHWVRQSPGQGLQWVAVISYHSTNKYYEESVRGRFTISRDNSKNTLYLQMNSLRAEDTAVYYCARDGYSSSFFDFWGQGTLVTVSS VL: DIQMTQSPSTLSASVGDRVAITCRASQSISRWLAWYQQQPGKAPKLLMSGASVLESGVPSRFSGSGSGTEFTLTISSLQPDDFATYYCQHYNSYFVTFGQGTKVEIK", 9.07],
  ["AB-007074 (antibody, V domains shown) VH: QMQLVESGGGVVQPGRSLRLSCAASGFTFSTYAMHWVRQAPGQGLQWVAVISYHSTNKYYEDSVRGRFTISRDNSKNTLYLQMNSLRAEDTAVYYCARDGYSSSFFDFWGQGTLVTVSS VL: DIQMTQSPSTLSASVGDRVTITCRASQSISRWLAWYQQQPGKAPKLLMSGASVLESGVPSRFSGSGSGTEFTLTISSLQPDDFATYYCQHYNSYYVTFGQGTKVEIK", 9.22],
  ["AB-007066 (antibody, V domains shown) VH: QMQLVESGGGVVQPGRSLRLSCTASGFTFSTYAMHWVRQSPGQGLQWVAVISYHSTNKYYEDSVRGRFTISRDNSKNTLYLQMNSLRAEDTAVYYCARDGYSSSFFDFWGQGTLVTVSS VL: DIQMTQSPSTLSASVGDRVAITCRASQSISRWLAWYQQQPGKAPKLLMSQASVLESGVPSRFSGSGSGTEFTLTISSLQPDDFATYYCQHYNSYFVTFGQGTKVEIK", 9.50],
  ["AB-007028 (antibody, V domains shown) VH: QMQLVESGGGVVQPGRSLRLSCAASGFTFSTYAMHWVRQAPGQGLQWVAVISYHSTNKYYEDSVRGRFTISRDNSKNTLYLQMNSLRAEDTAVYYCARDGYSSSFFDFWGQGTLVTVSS VL: DIQMTQSPSTLSASVGDRVTITCRASQSISRWLAWYQQQPGKAPKLLMSGASVLESGVPSRFSGSGSGTEFTLTISSLQPDDFATYYCQHYNSYFVTFGQGTKVEIK", 9.30],
  ["AB-007042 (antibody, V domains shown) VH: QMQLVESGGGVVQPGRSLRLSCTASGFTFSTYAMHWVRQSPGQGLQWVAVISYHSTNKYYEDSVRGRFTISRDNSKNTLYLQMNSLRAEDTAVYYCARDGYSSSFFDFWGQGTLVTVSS VL: DIQMTQSPSTLSASVGDRVAITCRASQDISRWLAWYQQQPGKAPKLLMSGASVLESGVPSRFSGSGSGTEFTLTISSLQPDDFATYYCQHYNSYFVTFGQGTKVEIK", 10.56],
  ["AB-007052 (antibody, V domains shown) VH: QMQLVESGGGVVQPGRSLRLSCTASGFTFSTYAMHWVRQSPGQGLQWVAVISYHSNNKYYEDSVRGRFTISRDNSKNTLYLQMNSLRAEDTAVYYCARDGYSSSFFDFWGQGTLVTVSS VL: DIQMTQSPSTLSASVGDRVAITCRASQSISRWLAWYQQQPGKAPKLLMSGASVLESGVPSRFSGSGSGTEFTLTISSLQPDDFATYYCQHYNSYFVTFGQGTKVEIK", 9.41]
]}

Next, consider the following binder.
INPUT: What value of measured pKd is listed for AB-007041 (antibody, V domains shown) VH: QMQLVESGGGVVQPGRSLRLSCTASGFTFSDYAMHWVRQSPGQGLQWVAVISYHSTNKYYEDSVRGRFTISRDNSKNTLYLQMNSLRAEDTAVYYCARDGYSSSFFDFWGQGTLVTVSS VL: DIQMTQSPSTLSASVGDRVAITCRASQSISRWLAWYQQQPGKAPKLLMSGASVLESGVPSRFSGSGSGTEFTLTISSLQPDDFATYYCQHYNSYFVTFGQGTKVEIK ?
OUTPUT: 9.33

Data credit: patent US20220195023A1
